# Tested System: GlcNAc(a1-4)Gal(b1-4)GalNAc
# Assay Procedure: glycan array binding signal (z-score within array); higher = stronger binding
# Applied Conditions: glycan notation: IUPAC condensed, linker removed
Only a selection was taken, and the strongest signals are over-represented in it overall.
Experimental Endpoint: glycan array binding signal (z-score)

Binder: DBA (Dolichos biflorus) (protein) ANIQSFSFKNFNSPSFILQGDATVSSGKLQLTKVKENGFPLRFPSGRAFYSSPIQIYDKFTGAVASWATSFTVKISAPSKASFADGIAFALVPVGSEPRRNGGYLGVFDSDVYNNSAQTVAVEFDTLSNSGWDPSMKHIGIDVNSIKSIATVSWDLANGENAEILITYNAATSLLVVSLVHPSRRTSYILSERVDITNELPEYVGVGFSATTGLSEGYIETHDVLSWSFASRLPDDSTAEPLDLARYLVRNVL
Experimental Endpoint: glycan array binding signal (z-score)
Observed: -0.085

Binder: PhypaEULS3 (Physcomitrella patens) (protein) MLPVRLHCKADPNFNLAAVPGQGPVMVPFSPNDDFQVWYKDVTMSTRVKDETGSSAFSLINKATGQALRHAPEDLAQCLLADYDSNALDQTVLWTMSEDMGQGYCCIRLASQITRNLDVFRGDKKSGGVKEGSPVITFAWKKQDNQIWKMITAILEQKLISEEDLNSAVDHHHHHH
Experimental Endpoint: glycan array binding signal (z-score)
Observed: -1.15
